src = patent US9125913B2

# Tested on: GST-Bcl-2
# assayNotes: TR-FRET binding assay, Bcl-2
# experimentalParameters: TR-FRET Ki values
Record satisfied whenever Binding selectivity ratio (Bcl-XL Ki/Bcl-2 Ki) is at 300 or higher; record not satisfied when lower.

compound	answerLabel
CC1(C)CCC(CN2CCN(c3ccc(C(=O)NS(=O)(=O)c4ccc(N[C@@H]5CCN(CC(F)F)C5)c([N+](=O)[O-])c4)c(Oc4cccc5[nH]cnc45)c3)CC2)=C(c2ccc(Cl)cc2)C1	satisfied
CN1CCN(Nc2ccc(S(=O)(=O)NC(=O)c3ccc(N4CCN(CC5=C(c6ccc(Cl)cc6)CC(C)(C)CC5)CC4)cc3Oc3cccc4[nH]cnc34)cc2[N+](=O)[O-])CC1	satisfied
CN(C)CCCNc1ccc(S(=O)(=O)NC(=O)c2ccc(N3CCN(Cc4ccccc4-c4ccc(Cl)cc4)CC3)cc2Oc2ccccc2)cc1[N+](=O)[O-]	not satisfied
CC1(C)CCC(CN2CCN(c3ccc(C(=O)NS(=O)(=O)c4ccc(NCCCN5CCOCC5)c([N+](=O)[O-])c4)c(Oc4ccc5[nH]ccc5c4)c3)CC2)=C(c2ccc(Cl)cc2)C1	satisfied
CN1CCN(Nc2ccc(S(=O)(=O)NC(=O)c3ccc(N4CCN(CC5=C(c6ccc(Cl)cc6)CCC(O)C5)CC4)cc3Oc3ccc4[nH]ccc4c3)cc2[N+](=O)[O-])CC1 (stereo not drawn)	satisfied
CN(C)CCCNc1ccc(S(=O)(=O)NC(=O)c2ccc(N3CCN(Cc4ccccc4-c4ccc(Cl)cc4)CC3)cc2Oc2cccc3cnccc23)cc1[N+](=O)[O-]	not satisfied
